All values here come from ChEMBL document CHEMBL1201862.

Kindly supply the reported GI50 values for the records listed here.
system: T47D; experiment: NCI tumour cell line growth inhibition, 48 h
Active and inactive are the calls of the source. Cut-off read from the data, not from the text of the source: active = GI50 up to about 1.1 µM and inactive = higher.

Q: Query (molecule): COc1ccc2nc3ccc(OC)cc3c([S+]([O-])Cc3ccc([N+](=O)[O-])cc3)c2c1 (centres undefined) ; field requested: GI50
Result: 1.95 µM (inactive)

Q: Query (molecule): `CC(C)CCNC(=O)c1ccc(CNC(=O)/C=C/c2ccc(-c3ccccc3[N+](=O)[O-])o2)cc1` ; field requested: GI50
Result: 12.2 µM (inactive)

Q: Query (molecule): `Cc1cc(NS(=O)(=O)c2ccc(NC(=O)c3ccc4nc5ccccc5c(Nc5ccc(S(N)(=O)=O)cc5)c4c3)cc2)no1` ; field requested: GI50
Result: 24.2 µM (inactive)

Q: Query (molecule): `COc1cccc(-c2nc(O)c3ccccc3n2)c1OC` ; field requested: GI50
Result: > 100 µM (inactive)
